B1: extracellular domain of A. thaliana TDR (residues 30-642) [modified: N-glycosylated at N111, N356, N378, N471 and N525 (one GlcNAc visible on each in the structures); N-glycosylated at N111, N356, N378, N471 and N525 (one … (parent)
chain 1: HEVPSGPNPISN
chain 2: LKFSPQLLSLLSLKTSLSGPPSAFQDWKVPVNGQNDAVWCSWSGVVCDNVTAQVISLDLSHRNLSGRIPIQIRYLSSLLYLNLSGNSLEGSFPTSIFDLTKLTTLDISRNSFDSSFPPGISKLKFLKVFNAFSNNFEGLLPSDVSRLRFLEELNFGGSYFEGEIPAAYGGLQRLKFIHLAGNVLGGKLPPRLGLLTELQHMEIGYNHFNGNIPSEFALLSNLKYFDVSNCSLSGSLPQELGNLSNLETLFLFQNGFTGEIPESYSNLKSLKLLDFSSNQLSGSIPSGFSTLKNLTWLSLISNNLSGEVPEGIGELPELTTLFLWNNNFTGVLPHKLGSNGKLETMDVSNNSFTGTIPSSLCHGNKLYKLILFSNMFEGELPKSLTRCESLWRFRSQNNRLNGTIPIGFGSLRNLTFVDLSNNRFTDQIPADFATAPVLQYLNLSTNFFHRKLPENIWKAPNLQIFSASFSNLIGEIPNYVGCKSFYRIELQGNSLNGTIPWDIGHCEKLLCLNLSQNHLNGIIPWEISTLPSIADVDLSHNLLTGTIPSDFGSSKTITTFNVSYNQLIGPIPSGSFAHLNPSFFSSNEGLCGDLVGKPCNSDRFNAGNADIDG

Variants of: B1
Experiment: ITC
Details: with Tracheary Element Differentiation Inhibitory Factor (TDIF) peptide [modified: hydroxyproline at 4 and 7, parent: 103 nM
pKd: −log10 of the molar value.
# reported pKd; entries follow
PARAMETER: pKd

- MUTATION: "chain 2 F252A"
  RESULT: 6.10
- MUTATION: "chain 2 F250A F252A"
  RESULT: 6.05
- MUTATION: "chain 2 W324A"
  RESULT: 6.06

# credit: paper PMC5383425
